test system: HCT116 (p53+) (Colorectal Carcinoma); experiment: cells; details: Homo sapiens, HCT-116, 72 h, read-out: cell viability (survival rate), HCT116
Where a name gives a salt, the structure may show the parent alone.
Lab note: anything with viability at 10 µM below 90% is marked Yes; values at 90% or higher are marked No.

Request: Is viability at 10 µM of CN1CCN(c2cc3c(cc2F)c(=O)c(C(=O)O)cn3-c2ccc(F)cc2)CC1 [Difloxacin HCl] strictly below 90%?
Result: No

Request: Thanks! And COc1cc(NC(C)CCCN)c2ncccc2c1 (centres unmarked) [Primaquine Diphosphate] ?
Result: Yes

Request: Thanks! And COc1cc(/C=C/C(=O)CC(=O)/C=C/c2ccc(O)c(OC)c2)ccc1O [Curcumin] ?
Result: No

Request: Thanks! And CCn1nc(C(=O)O)c(=O)c2cc3c(cc21)OCO3 [Cinoxacin] ?
Result: Yes

Request: Thanks! And CN(C)[C@@H]1C(O)=C(C(=O)NCN2CCCC2)C(=O)[C@@]2(O)C(O)=C3C(=O)c4c(O)cccc4[C@@](C)(O)[C@H]3C[C@@H]12 [Rolitetracycline] ?
Result: Yes

Request: Thanks! And CCc1oc2ccccc2c1C(=O)c1cc(Br)c(O)c(Br)c1 [Benzbromarone] ?
Result: No

Request: Thanks! And CCCCCCCCCCCCCCCCO [1-Hexadecanol] ?
Result: Yes

Request: Thanks! And O=c1ccc2ccccc2o1 [Coumarin] ?
Result: No

Request: Thanks! And CN(C)c1ccc(O)c2c1C[C@H]1C[C@H]3[C@H](N(C)C)C(O)=C(C(N)=O)C(=O)[C@@]3(O)C(O)=C1C2=O [Minocycline HCl] ?
Result: No

Request: Thanks! And C[N+](C)(C)CCO.[Cl-] [Choline Chloride] ?
Result: No

Request: Thanks! And CO[C@@]1(NC(=O)C(C(=O)O)c2ccc(O)cc2)C(=O)N2C(C(=O)O)=C(CSc3nnnn3C)CO[C@@H]21 (some centres unmarked) [Moxalactam Disodium] ?
Result: Yes

Request: Thanks! And CC(=O)Nc1ncc([N+](=O)[O-])s1 [Nithiamide] ?
Result: Yes

Request: Thanks! And CCc1c(Cl)c(O)c(Cl)c(O)c1C(=O)O[C@H]1[C@H](O)[C@H](OC)[C@H](OC/C2=C\C=C\C[C@H](O)/C(C)=C/[C@H](CC)[C@@H](O[C@@H]3OC(C)(C)[C@@H](OC(=O)C(C)C)[C@H](O)[C@@H]3O)/C(C)=C/C(C)=C/C[C@@H]([C@@H](C)O)OC2=O)O[C@@H]1C [Fidaxomicin] ?
Result: No

Request: Thanks! And COC(=O)N/N=C/c1c[n+]([O-])c2ccccc2[n+]1[O-] [Carbadox] ?
Result: Yes

Request: Thanks! And COC(=O)C1=CO[C@@H](O[C@@H]2O[C@H](CO)[C@@H](O)[C@H](O)[C@H]2O)[C@@H]2C(CO)=CC[C@H]12 [Geniposide] ?
Result: Yes

====

system: A549 (Lung Adenocarcinoma); test: Cell viability analysis, lung cancer A549; assay type: cell-based, human; conditions: Homo sapiens, A549, 72 h, A549; repeated experiment; read-out: The results of antibiotic drug inhibiting cancer cell lines (cell viability analysis), A549
Structures can show the parent of a compound that is named as a salt.
Lab note: anything with viability at 10 µM below 60% is marked Criterion met; values at 60% or higher are marked Criterion not met.

Request: Is viability at 10 µM of COC(=O)Nc1nc2ccc([S+]([O-])c3ccccc3)cc2[nH]1 (stereo not drawn) [Oxfendazole] strictly below 60%?
Result: Criterion not met

Request: Thanks! And CCc1cc2c(cc1CC)CC(NC[C@H](O)c1ccc(O)c3[nH]c(=O)ccc13)C2 [Indacaterol Maleate] ?
Result: Criterion not met

Request: Thanks! And CC(C)CN(C[C@@H](O)[C@H](Cc1ccccc1)NC(=O)O[C@H]1CCOC1)S(=O)(=O)c1ccc(N)cc1 [Amprenavir (Agenerase), Amprenavir] ?
Result: Criterion not met

Request: Thanks! And NC(=O)N/N=C/c1ccc([N+](=O)[O-])o1 [Nitrofurazone (Nitrofural), Nitrofurazone] ?
Result: Criterion not met

Request: Thanks! And CN(C)CCC=C1c2ccccc2CCc2ccccc21 [Amitriptyline HCl] ?
Result: Criterion not met

Request: Thanks! And COc1c(C)c2c(c(O)c1C/C=C(\C)CCC(=O)O)C(=O)OC2 [Mycophenolic (Mycophenolate), Mycophenolic] ?
Result: Criterion met

Request: Thanks! And CC[C@@H]([C@H](C)O)n1ncn(-c2ccc(N3CCN(c4ccc(OC[C@@H]5CO[C@@](Cn6cncn6)(c6ccc(F)cc6F)C5)cc4)CC3)cc2)c1=O [Posaconazole] ?
Result: Criterion met

Request: Thanks! And CC(C)/N=c1\cc2n(-c3ccc(Cl)cc3)c3ccccc3nc-2cc1Nc1ccc(Cl)cc1 [Clofazimine] ?
Result: Criterion not met

Request: Thanks! And Cc1ccc2c(Cl)cc(Cl)c(O)c2n1 [Chlorquinaldol] ?
Result: Criterion met

Request: Thanks! And CC(C)c1nc(N(C)S(C)(=O)=O)nc(-c2ccc(F)cc2)c1/C=C/[C@@H](O)C[C@@H](O)CC(=O)O [Rosuvastatin calcium (Crestor), Rosuvastatin calcium] ?
Result: Criterion not met

Request: Thanks! And CCCCCCCCCCCCCCCC[N+](C)(C)CCN(Cc1ccc(OC)cc1)c1ncccn1 [Thonzonium Bromide] ?
Result: Criterion met

Request: Thanks! And CC(C)(C)CC(C)(C)c1ccc(O)c(Cc2ccc(Cl)cc2Cl)c1 [Clofoctol] ?
Result: Criterion not met
